- Study Target: muscarinic cholinergic receptor
- Format: binding, rat
- Condition: rat cerebral cortex, ^3 H-QNB 0.25 nM, 25° C., 120 minutes, pH 7.4
Cut-off 10 µM on Ki: below means label 1, at or above means label 0.

Consider the following illustrative entries.
CC(C)(C)[Si](C)(C)O[C@@H]1CCN(CC#CCn2ccnc2)C1=O; label 0
CC(C)(C)[Si](C)(C)OC[C@H]1CCCN1CC#CCN1CC[C@H](O)C1=O; label 0
CCCCCCCCCC(=O)O[C@@H]1CCN(CC#CCN(C)C)C1=O; label 0
O=C1[C@@H](O)CCN1CC#CCN1CCC[C@H]1CO; label 0
CC(=O)O[C@@H]1CCN(CC#CCN2CCC[C@H]2CO[Si](C)(C)C(C)(C)C)C1=O; label 0
CN(C)CC#CCN1CC[C@H](OC(=O)C(C)(C)C)C1=O; label 0

Data request: Report whether reported Ki is lower than 10 µM (strictly) for `CC(C)(C)[Si](C)(C)OC[C@@H]1CCCN1CC#CCNC(=O)C(F)(F)F`
Data returned: label 0

Data request: Try `CC(C)(C)[Si](C)(C)O[C@H]1CCN(CC#CCN2CCCC2)C1=O` next.
Data returned: label 1

Data request: Try `C[N+](C)(C)CC#CCN1CC[C@@H](N=[N+]=[N-])C1=O` next.
Data returned: label 1

====

- Study Target: muscarinic cholinergic receptor
- Run Description: [^3 H]-Cis-methyldioxolane (^3 H-CD) Binding Assay (High Affinity)
- Condition: rat cerebral cortex, ^3 H-CD 1.0 nM, 25° C., 120 minutes, pH 7.4; high affinity agonist binding
Counter-ions that a name gives are not always drawn.
Endpoint Label: Ki (nM)
All answers are understood in nM, so give the number only.

COC(=O)O[C@H]1CC(=O)N(CC#CCN2CCCC2)C1; 850
CC(C)(C)[Si](C)(C)OC[C@H]1CCCN1CC#CCN1CC[C@H](O)C1=O; 1700
CC(C)(C)C(=O)O[C@@H]1CCN(CC#CCN2CCCC2)C1=O; 500

Data request: Find the recorded Ki belonging to `CC(C)(C)C(=O)O[C@H]1CCN(CC#CCN2CCCC2)C1=O` and report it.
Data returned: 370

Data request: Try `C[C@H]1CCN(CC#CCN(C)C)C1=O` next.
Data returned: 680

Data request: Try O=C(NCC#CCN1CCCC1)C(F)(F)F [monohydrochloride] next.
Data returned: 8880

====

- Study Target: muscarinic cholinergic receptor
- Run Description: [^3 H]-Cis-methyldioxolane (^3 H-CD) Binding Assay (High Affinity)
- Condition: rat cerebral cortex, ^3 H-CD 1.0 nM, 25° C., 120 minutes, pH 7.4; high affinity agonist binding
pKi: −log10 of the molar value. Structures can show the parent of a compound that is named as a salt.
Is pKi at least 6? Then satisfied. If not, not satisfied.

COC(=O)O[C@@H]1CCN(CC#CCN2CCCC2)C1=O; satisfied
CC(C)(C)[Si](C)(C)O[C@H]1CCN(CC#CCN2CCC2)C1=O; not satisfied
CS[C@H]1CCN(CC#CC[N+](C)(C)C)C1=O; satisfied

Data request: pKi >= 6 for N[C@H]1CCN(CC#CCN2CCCC2)C1=O [dihydrochloride] ?
Data returned: satisfied

Data request: Try `O=C1[C@@H](O)CCN1CC#CCN1CCC[C@@H]1CO` next.
Data returned: not satisfied

Data request: Try `CC(C)(C)[Si](C)(C)O[C@H]1CCN(CC#CCN2CCCC2)C1=O` next.
Data returned: not satisfied

Data request: Try `CCCCCCCCCC(=O)O[C@@H]1CCN(CC#CC[N+](C)(C)C)C1=O` next.
Data returned: satisfied

Data request: Try `CCCCCCOC(=O)O[C@H]1CCN(CC#CCN2CCCC2)C1=O` next.
Data returned: satisfied

Data request: Try `CC(=O)O[C@H]1CCN(CC#CCN2CCC[C@H]2CO[Si](C)(C)C(C)(C)C)C1=O` next.
Data returned: satisfied

Data request: Try CN(C)CC#CCN1CC[C@H](N)C1=O [dihydrochloride] next.
Data returned: not satisfied

Data request: Try COC(=O)O[C@@H]1CCN(CC#CCN(C)C)C1=O [monohydrochloride] next.
Data returned: not satisfied

Data request: Try `CC(C)C(=O)O[C@@H]1CCN(CC#CC[N+](C)(C)C)C1=O` next.
Data returned: satisfied

====

- Tested on: peripheral acetylcholine-like effects
- Run Description: Side effect profile: in vivo overt effects (salivation, tremor, diarrhea) after oral administration
- Parameters: species or system rat
- Condition: (rat) po
Readings of Side Effect Profile minimum effective dose (MED) for the listed compounds

Data request: Find the recorded Side Effect Profile minimum effective dose (MED) belonging to `CCNC(=O)O[C@@H]1CCN(CC#CCN(C)C)C1=O` and report it.
Data returned: > 510 μ mol/kg

Data request: Try `CCCCCCNC(=O)O[C@H]1CCN(CC#CCN2CCCC2)C1=O` next.
Data returned: > 450 μ mol/kg

Data request: Try `CCCCCCNC(=O)O[C@H]1CCN(CC#CCN(C)C)C1=O` next.
Data returned: > 510 μ mol/kg

Data request: Try `CCCCCCNC(=O)O[C@@H]1CCN(CC#CCN2CCCC2)C1=O` next.
Data returned: > 450 μ mol/kg

Data request: Try `CCCCCCCCNC(=O)O[C@H]1CCN(CC#CCN2CCCC2)C1=O` next.
Data returned: > 450 μ mol/kg

====

Readings of pKi for the listed molecules
- Study Target: muscarinic cholinergic receptor
- Run Description: [^3 H]-Cis-methyldioxolane (^3 H-CD) Binding Assay (High Affinity)
- Condition: rat cerebral cortex, ^3 H-CD 1.0 nM, 25° C., 120 minutes, pH 7.4; high affinity agonist binding
Counter-ions that a name gives are not always drawn.
Kindly note that pKi refers to -log10 of the concentration in mol/L and answer with the value alone.

Previously resolved entries follow.
CC1CCN(CC#CCN2CCC2)C1=O (racemic) [Racemic 1-[4-(1-azetidinyl)-2-butynyl-3-methyl-2-pyrrolidinone]; 7.27
CCN(CC)CC#CCN1CCC(C)C1=O (racemic) [Racemic 1-[4-(1-Diethylamino)-2-butynyl]-3-methyl-2-pyrrolidinone]; 5.29
CCCCCCCCNC(=O)O[C@@H]1CCN(CC#CCN2CCCC2)C1=O; 6.62
COC(=O)O[C@H]1CCN(CC#CCN(C)C)C1=O; 5.67
CC(=O)O[C@@H]1CCN(CC#CCN2CCC[C@@H]2CO[Si](C)(C)C(C)(C)C)C1=O; 5.00

Data request: Find the recorded pKi belonging to CN(C)CC#CCN1CC[C@@H](N)C1=O [dihydrochloride] and report it.
Data returned: 6.05

Data request: Try `CC(=O)O[C@H]1CCN(CC#CCN(C)CCO)C1=O` next.
Data returned: 4.79

Data request: Try `CN(CC#CCN1CC[C@H](O)C1=O)CCO` next.
Data returned: 5.74

Data request: Try `CN(C)CC#CCN1CC[C@@H](N=[N+]=[N-])C1=O` next.
Data returned: 6.30

====

Readings of Ki for the listed compounds
- Study Target: muscarinic cholinergic receptor
- Type: binding, rat
- Condition: rat cerebral cortex, ^3 H-QNB 0.25 nM, 25° C., 120 minutes, pH 7.4
Where a name gives a salt, the structure may show the parent alone.
All answers are understood in µM, so give the number only.

CCN(CC)CC#CCN1CC[C@H](O[Si](C)(C)C(C)(C)C)C1=O; 7.6
COC(=O)O[C@H]1CCN(CC#CCN(C)C)C1=O; 15.1
CS[C@@H]1CCN(CC#CCN(C)C)C1=O; 108
N[C@@H]1CCN(CC#CCN2CCCC2)C1=O [dihydrochloride]; 6.1
CCCCCCCCCC(=O)O[C@@H]1CCN(CC#CC[N+](C)(C)C)C1=O; 0.2
CC(=O)O[C@H]1CCN(CC#CCN2CCC[C@H]2CO[Si](C)(C)C(C)(C)C)C1=O; 2.6
CN(C)CC#CCN1CC[C@@H](O)C1=O; 105
O=C(OCc1ccccc1)O[C@@H]1CCN(CC#CCN2CCCC2)C1=O; 1.4

Data request: What reported Ki corresponds to `CCCCCCCCCC(=O)O[C@H]1CCN(CC#CCN(C)C)C1=O` on muscarinic cholinergic receptor?
Data returned: 0.6

Data request: Try `CC(C)(C)C(=O)O[C@@H]1CCN(CC#CCN2CCCC2)C1=O` next.
Data returned: 10.2

Data request: Try `CS[C@H]1CCN(CC#CC[N+](C)(C)C)C1=O` next.
Data returned: 1.8

Data request: Try CCN(CC)CC#CCN1CCC(C)C1=O (racemic) [Racemic 1-[4-(1-Diethylamino)-2-butynyl]-3-methyl-2-pyrrolidinone] next.
Data returned: 6

Data request: Try `CCCCCCCCNC(=O)O[C@@H]1CCN(CC#CC[N+](C)(C)C)C1=O` next.
Data returned: 0.5

Data request: Try `CCCCCCOC(=O)O[C@H]1CCN(CC#CCN2CCCC2)C1=O` next.
Data returned: 1.7

Data request: Try `CC(C)(C)[Si](C)(C)O[C@H]1CCN(CC#CCN2CCC2)C1=O` next.
Data returned: 5.8

Data request: Try `CC(C)(C)[Si](C)(C)OC[C@@H]1CCCN1CC#CCN1CC[C@@H](O)C1=O` next.
Data returned: 0.5

Data request: Try `CCCCCCCCCC(=O)O[C@@H]1CCN(CC#CCN2CCCC2)C1=O` next.
Data returned: 0.2

Data request: Try `CS[C@@H]1CCN(CC#CCN2CCCC2)C1=O` next.
Data returned: 3.6

Data request: Try `O=C1[C@H](O)CCN1CC#CCN1CCCC1` next.
Data returned: 3.4

Data request: Try `CC(C)C(=O)O[C@@H]1CCN(CC#CCN(C)C)C1=O` next.
Data returned: 711

Data request: Try `CC(C)(C)[Si](C)(C)OC[C@@H]1CCCN1CC#CCN1CC[C@H](O)C1=O` next.
Data returned: 0.4

Data request: Try `CCCCCCCCOC(=O)O[C@H]1CCN(CC#CC[N+](C)(C)C)C1=O` next.
Data returned: 0.1

Data request: Try `C[N+](C)(C)CC#CCN1CC[C@H](N=[N+]=[N-])C1=O` next.
Data returned: 1.6

Data request: Try CC1CCN(CC#CCN2CCCC2CO[Si](C)(C)C(C)(C)C)C1=O (stereo not shown) next.
Data returned: 2.5

Data request: Try `CNC(=O)O[C@H]1CCN(CC#CCN2CCCC2)C1=O` next.
Data returned: 433
